# System: A549
# Method Summary: Cytotoxicity against human A549 cells after 48 hrs by neutral red uptake assay
# Format: cell-based
# Run Parameters: a549, 48 h
Binary label based on CC50 with cut-off 80 µM: below gives Y, not below gives N.

[[record]]
molecule = "Clc1cc(-c2cc(CNC34CC5CC(CC(C5)C3)C4)no2)c(Cl)s1"
category_label = "Y"

[[record]]
molecule = "Clc1cc(-c2cc(CNC34CC5CC(CC(C5)C3)C4)no2)cs1"
category_label = "Y"

[[record]]
molecule = "COc1sccc1-c1cc(CNC23CC4CC(CC(C4)C2)C3)no1"
category_label = "Y"


Task: Is it true that CC50 reported for CSc1ccccc1-c1cc(CNC23CC4CC(CC(O)(C4)C2)C3)no1 is less than 80 µM?
Result: N

Task: Regarding OC12CC3CC(C1)CC(NCc1cc(-c4ccccc4Cl)on1)(C3)C2 , kindly confirm whether its CC50 is beneath 80 µM.
Result: N

====

# Tested on: MDCK
# Method Summary: Cytotoxicity against MDCK cells after 48 hrs by neutral red uptake assay
# Assay type: cell-based, Canis lupus familiaris
# Run Parameters: dog
Metric Name: CC50 (µM)
# unit: µM | format: bare number

[[record]]
molecule = "OC12CC3CC(C1)CC(NCc1cc(-c4cc(Cl)sc4Cl)on1)(C3)C2"
reported_measurement = 87.6

[[record]]
molecule = "COc1sccc1-c1cc(CNC23CC4CC(CC(C4)C2)C3)no1"
reported_measurement = 30.6

[[record]]
molecule = "Oc1ccccc1-c1cc(CNC23CC4CC(CC(C4)C2)C3)no1"
reported_measurement = 73.7

[[record]]
molecule = "OC12CC3CC(C1)CC(NCc1cc(-c4ccccc4Cl)on1)(C3)C2"
reported_measurement = 64.1

[[record]]
molecule = "CSc1ccccc1-c1cc(CNC23CC4CC(CC(O)(C4)C2)C3)no1"
reported_measurement = 59.3


Summary for this compound, Clc1cc(-c2cc(CNC34CC5CC(CC(C5)C3)C4)no2)cs1 : CC50 is 35.6

Looking up Clc1cc(-c2cc(CNC34CC5CC(CC(C5)C3)C4)no2)c(Cl)s1 , I found its CC50 recorded as 39.3
